Test system: Amphetamine antibody
experiment.notes: Amphetamine spin immunoassay
Assay type: binding, rabbit
measurement.conditions: six of 100 urines; background 10% or less
Protocol: Two plastic cups were employed. In one cup was 2.5 μl of 0.2 M sodium dichromate. In the other cup was 5.0 μl of antibody solution. The sample was transferred employing a 25 μl Oxford Sampler and introduced into the cup containing dichromate. […] To the resulting solution was then added 5 μl of spin label, the sample was then stirred with an ESR capillary tube, the sample allowed to rise into the capillary and the spectrum read.
attribute.measured: mobilization with urine of individuals who indicated taking cross reacting substances

>  <molecule>
COc1cc(CCN)cc(OC)c1OC

>  <result>
greater than 14%

$$$$
>  <molecule>
CC(N)C(O)c1ccccc1 (stereo not shown)

>  <result>
greater than 14%

$$$$
>  <molecule>
CC(N)Cc1ccccc1 (stereo not shown)

>  <result>
greater than 14%

$$$$
>  <molecule>
CN[C@@H](C)[C@@H](O)c1ccccc1

>  <result>
greater than 14%

$$$$
